Test system: rodent lifetime carcinogenesis bioassay, tumor incidence TD50
Experiment: carcinogenic potency in animals, long-term in vivo studies, CPDB compilation (AID 1745844)
Settings: mouse; strain B6C3F1; males; inhaled; site: heart + peritoneal cavity; lesion: hemangiosarcoma; dosed 60 weeks; study length 60 weeks
measure: TD50 (mg/kg/day)
Express your answer in mg/kg/day, writing the number without its unit.

Given the molecule C=CC=C , what is its reported TD50? 96.7

* * *

System: rodent lifetime carcinogenesis bioassay, tumor incidence TD50
Experiment: carcinogenic potency in animals, long-term in vivo studies, CPDB compilation (AID 1745844)
Conditions: rat; strain Fischer 344; females; by gavage; site: adrenal medulla + pituitary gland, anterior; lesion: pheochromocytoma + adenoma, NOS; dosed 103 weeks; study length 104 weeks
measure: TD50

Given the compound S=c1[nH]c2ccccc2s1 , what is its reported TD50? 247 mg/kg/day
